tested on: L1210 leukemia ip in BDF1 mice, survival T/C; assay: NCI In Vivo Anticancer Drug Screen. Data for tumor model L1210 Leukemia (intraperitoneal) in B6D2F1 (BDF1) mice; details: endpoint: mean survival time; dose: 400.0 mg/kg/injection; schedule: Q04DX003 (ip); vehicle: saline with Tween-80; higher = longer survival
Inconclusive results and toxic doses are left out.
Each item that follows carries a reported T/C.
ENDPOINT: T/C

CN(C)c1ccc(SCC(=O)c2ccccc2)cc1	95 % of control
COc1cc2c(c3ccccc13)CCCC2=O	92 % of control
CCOC(=O)CCCN(c1sc(C)c(C)c1C(=O)OCC)S(=O)(=O)c1ccc(C)cc1	101 % of control
NC(=S)N/N=C/c1ccc(OC(=O)COc2ccccc2Cl)cn1	93 % of control
CCCCP(=O)(CCC)CCCC	87 % of control
N#CCCNc1ccccc1	105 % of control
O=C(O)c1cc(C(=O)Nc2cccc3ccccc23)c(C(=O)O)cc1C(=O)Nc1cccc2ccccc12	98 % of control
N#C/C(=C\c1c(Cl)cccc1Cl)c1ccc([N+](=O)[O-])cc1	92 % of control
CCOC(=O)CCCN(c1sc(C)c(-c2ccccc2)c1C(=O)OCC)S(=O)(=O)c1ccc(C)cc1	87 % of control
CCC(C)C1CC1(Br)Br (configuration not stated)	98 % of control
O=[N+]([O-])c1ccc2c(c1)/C(=C1/c3cc(Br)ccc3-c3ccc([N+](=O)[O-])cc31)c1cc(Br)ccc1-2	92 % of control
CCCCC(=O)Nc1cccc(OC(=O)NC)c1	87 % of control

====

tested on: L1210 leukemia ip in BDF1 mice, survival T/C; assay: NCI In Vivo Anticancer Drug Screen. Data for tumor model L1210 Leukemia (intraperitoneal) in B6D2F1 (BDF1) mice; conditions: endpoint: mean survival time; dose: 200.0 mg/kg/injection; schedule: Q01DX009 (ip); vehicle: saline with Tween-80; higher = longer survival
Inconclusive results and toxic doses are left out.
ENDPOINT: T/C

COc1cc2ccnc(Cc3ccccc3)c2cc1OC	88 % of control
O=c1[nH]c(=S)[nH]c(Cc2ccccc2)c1CCO	108 % of control
CCC1(O)C2CCCC1CCC2 (stereo not drawn)	94 % of control
O=[N+]([O-])c1ccc(CN=NCc2ccc(Cl)cc2Cl)c(Cl)c1	100 % of control
BrCOCCCCOCBr	104 % of control
OC(Cc1ccc2ccccc2n1)C(Cl)(Cl)Cl (stereo not drawn)	89 % of control
O=C(O)c1ccccc1C(=O)NC(Cc1cnc[nH]1)C(=O)O (stereo not drawn)	100 % of control
O=C(CC(NC(=O)OCc1ccccc1)c1nn[nH]n1)OCc1ccccc1 (stereo not drawn)	103 % of control
CCOc1ccc(Br)cc1/C=C1/NC(=O)NC1=O	101 % of control
COc1cc2c(cc1OC)C1CCN3C(=O)CCC3N1CC2 (stereo not drawn)	98 % of control
COc1ccc([N+](=O)[O-])cc1NC(=O)Cc1ccccc1	101 % of control
c1ccc(Cc2ccncc2)cc1	106 % of control
Cc1cnc2c(N)nn(-c3ccccc3)c2n1	101 % of control

====

tested on: L1210 leukemia ip in BDF1 mice, survival T/C; test: NCI In Vivo Anticancer Drug Screen. Data for tumor model L1210 Leukemia (intraperitoneal) in B6D2F1 (BDF1) mice; conditions: endpoint: mean survival time; dose: 100.0 mg/kg/injection; schedule: Q01DX001 (ip); vehicle: saline; higher = longer survival
Inconclusive results and toxic doses are left out.
molecules and their reported T/C
ENDPOINT: T/C

OC12CCCCC1C[n+]1ccccc1C2 (stereo unspecified)	101 % of control
CC(C)=NNc1cccc2cccc(N)c12	97 % of control
CCOC1(OCC)C([N+](=O)[O-])=CC(=[N+]([O-])O)C=C1[N+](=O)[O-]	98 % of control
O=[N+]([O-])c1ccc(NCCNC(c2ccccc2)(c2ccccc2)c2ccccc2)c([N+](=O)[O-])c1	87 % of control
CCCC1C2C(=O)N(c3ccccc3)C(=O)C2ON1c1ccccc1 (stereo unspecified)	98 % of control
O=C(O)/C=C/C(=O)Nc1ccc2c(c1)Cc1cc(NC(=O)C(F)(F)F)ccc1-2	90 % of control
Cc1cccc(CCSCCc2cccc(C)[n+]2[O-])[n+]1[O-]	96 % of control
COc1cc(C)c2c(c1OC)C(=O)CC2	94 % of control
COc1ccc2c(=O)c3c(O)cc(OC)cc3oc2c1	97 % of control
CC1CCCCN1C(CC(=O)c1ccccc1)C(=O)c1ccccc1 (stereo unspecified)	95 % of control
O=C(CCCC(=O)NNC(=S)Nc1ccc2ccccc2c1)NNC(=S)Nc1ccc2ccccc2c1	93 % of control
